Below, each entry is listed with its recorded pIC50.
Target: JAK1 JH2 pseudokinase (Homo sapiens, UniProt P23458)
Sequence (P23458 583-855 limits assumed): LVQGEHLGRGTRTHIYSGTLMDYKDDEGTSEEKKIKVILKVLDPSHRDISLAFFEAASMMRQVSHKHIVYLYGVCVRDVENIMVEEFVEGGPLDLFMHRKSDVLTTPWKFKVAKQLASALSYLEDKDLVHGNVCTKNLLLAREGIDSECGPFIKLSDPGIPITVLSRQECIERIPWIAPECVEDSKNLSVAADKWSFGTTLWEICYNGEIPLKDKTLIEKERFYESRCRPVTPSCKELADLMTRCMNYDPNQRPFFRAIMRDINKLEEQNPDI
Assay: JAK1 JH2 enzyme binding assay in vitro (TR-FRET)
Settings: read-out: JAK 1 JH2 IC50
# pIC50 is unitless: minus log10 of the molar concentration; print number only

[2H]C([2H])([2H])NC(=O)c1nnc(NC(=O)C2CC2)cc1Nc1cccc(C(=O)Nc2ccc(F)cc2)c1OC [Example 5]: 8.16
[2H]C([2H])([2H])NC(=O)c1cnc(NC(=O)C2CC2)cc1Nc1cccc(C(=O)Nc2ccc(F)cc2)c1OC [Example 57]: 8.25

Let's switch to this compound now.
Task: Quickly give me recorded pIC50 for [2H]C([2H])([2H])NC(=O)c1cnc(NC(=O)C2CC2)cc1Nc1cccc(C(=O)Nc2cncc(C)c2)c1OC [Example 91]
Output: 8.48

* * *

Target: TYK2 JH2 pseudokinase (Homo sapiens, UniProt P29597)
Sequence (P29597 589-875 limits assumed): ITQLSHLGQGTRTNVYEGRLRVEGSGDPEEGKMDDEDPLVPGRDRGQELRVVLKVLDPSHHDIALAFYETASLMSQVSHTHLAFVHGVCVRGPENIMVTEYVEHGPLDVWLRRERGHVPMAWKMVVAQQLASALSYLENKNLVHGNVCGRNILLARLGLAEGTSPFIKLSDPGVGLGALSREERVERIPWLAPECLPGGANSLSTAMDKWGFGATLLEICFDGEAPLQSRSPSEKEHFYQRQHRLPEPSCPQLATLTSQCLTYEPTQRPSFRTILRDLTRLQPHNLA
Assay: TYK2 JH2 enzyme binding assay in vitro (TR-FRET)
experimental endpoint: pIC50
# pIC50 is unitless: minus log10 of the molar concentration; print number only

Solved entries (count: 2):
[2H]C([2H])([2H])NC(=O)c1cnc(NC(=O)C2CC2)cc1Nc1cccc(C(=O)Nc2ccc(C)cc2)c1OC [Example 54]: 9.52
[2H]C([2H])([2H])NC(=O)c1nnc(NC(=O)C2CC2)cc1Nc1cccc(C(=O)Nc2ccc(C)c(C)c2)c1OC [Example 4]: 9.53

Let's switch to this compound now.
Task: Quickly give me recorded pIC50 for [2H]C([2H])([2H])NC(=O)c1cnc(NC(=O)C2CC2)cc1Nc1cccc(C(=O)Nc2cccc(C)c2)c1OC [Example 55]
Output: 9.53
